# test.details: growth of efflux-deficient E. coli DRC39 – strain DRC39, OD650, 24 h, E. coli filamentation inducers, primary screen (AID 1178);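 note: growth measured as culture turbidity by optical density at 650 nm; test concentration not given here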
# particulars: E. coli DRC39 acrAB, higher = more signal, called active from +8 up or from −8 down
Label Y when z-score >= -0.1; otherwise N.

Some entries whose results are on file:
| molecule | label.class |
| --- | --- |
| COc1ccc([Si](C)(C)[C@H]2[C@H](CCO)O[C@@]3(C(=O)N(Cc4ccccc4)c4ccc(N5CCCCC5=O)cc43)[C@@H]2C)cc1 | Y |
| O=C1NC(=O)C2C1C=CC(C(O)c1ccc(-c3ccccc3)s1)N2Nc1ccc(Cl)cc1Cl (centres undefined) | Y |
| COCC(=C=CC[C@H](O)c1ccccc1OCCO)CCO | N |
| C#CCOc1ccc(C[C@@H](C(=O)OC)N(CC#C)[C@@H](/C=C/C2CC2)[C@H](O)Cc2ccccc2)cc1 | N |
| Cc1ccc(S[C@]2(C(=O)O)CC(=O)N(C(C)C)[C@@H]2c2ccc(CO)cc2)cc1 | Y |

Q. Quick check, z-score >= -0.1? CN1C(=O)C2C=CC(C(O)c3ccccc3)N(N3CCCCC3)C2C1=O (centres undefined)
A. N

Q. Quick check, z-score >= -0.1? C=C(/C(=C/C[C@H](OC(C)=O)c1ccc(OCCO)cc1)c1cc(C(=O)OC)ccc1OC)C(C)C
A. Y

Q. Quick check, z-score >= -0.1? CC(C)Cc1ccc(CN2CC[C@@H](N)C2)cc1
A. Y

Q. Quick check, z-score >= -0.1? CN(C)C(=O)[C@]1(Cc2ccccc2)N=C(c2ccc(OCCCO)cc2)O[C@@H]1c1ccccc1N=[N+]=[N-]
A. Y

Q. Quick check, z-score >= -0.1? CC(C)CNC(=O)[C@@]1(Cc2ccccc2I)c2ccccc2C(=O)N(Cc2ccccc2C(F)(F)F)[C@H]1c1ccc(CO)cc1
A. N

Q. Quick check, z-score >= -0.1? CN1C(=O)C2C=CC(C(O)C=Cc3ccc([N+](=O)[O-])cc3)N(Nc3ccccc3)C2C1=O (centres undefined)
A. N

###

Recorded composite z-score by entry
# target: Dihydroorotate dehydrogenase (quinone), mitochondrial (Plasmodium falciparum (isolate 3D7))
# test.details: inhibition of P. falciparum DHODH – biochemical, C-terminal His tag, absorbance 600 nm, primary screen (AID 1175);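 note: recombinant parasite enzyme with a five histidine tag at its C terminus; test concentration not given here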
# particulars: PfDHODH enzyme, DCIP absorbance 600 nm; higher = more signal, called active from +8 up or from −8 down
Give the value as a plain number.

Look over these answered cases.
| compound | assay.value |
| --- | --- |
| C[N+](C)(C)CCCC[C@@H]1NC(=O)[C@H]2C[C@@H](C(=O)NCCCCCCNC(=O)CS)[C@@H](c3ccc(O)cc3)N2C1=O | 0.0966 |
| CC(CO)N1C(=O)[C@@H]2C3C(=O)OCCC/C=C\[C@H]3OC23C=CCN(CCN2CCOCC2)C(=O)[C@@H]13 (some centres undefined) | -0.387 |
| O=C1C[C@@](C(=O)NCc2ccccc2)(c2ccc([N+](=O)[O-])cc2)[C@@H](c2ccc(CO)cc2)N1CC12CC3CC(CC(C3)C1)C2 | 0.59 |

Q. For the compound shown here, Cc1c(NC(=O)/C(C#N)=C/c2cccc([N+](=O)[O-])c2)c(=O)n(-c2ccccc2)n1C , give the reported composite z-score.
A. -2.58

// provenance: PubChem BioAssay
